test system: Hepatitis C virus NS3 helicase; experiment: HCV NS3 helicase inhibitors, primary screen, biochemical, fluorescence polarization, NIH Clinical Collection (AID 743270); conditions: NS3 helicase binding to Cy5-dT15 DNA, active compounds read high, concentration not given here
Measured inhibition, listed per entry for reference.
Parameter measured: inhibition (%)

[[record]]
compound = "COc1ccc2[nH]cc(CCN)c2c1"
parameter_measured = "inhibition"
unit_of_measurement = "%"
measurement = -1.09

[[record]]
compound = "CN1CC[C@]2(c3cccc(O)c3)Cc3nc4ccccc4cc3C[C@H]2C1"
parameter_measured = "inhibition"
unit_of_measurement = "%"
measurement = -8.08

[[record]]
compound = "CNCC(O)c1ccc(O)cc1 (centres undefined)"
parameter_measured = "inhibition"
unit_of_measurement = "%"
measurement = -1.09

[[record]]
compound = "c1ccc2c3c([nH]c2c1)CNCC3"
parameter_measured = "inhibition"
unit_of_measurement = "%"
measurement = 0.66

[[record]]
compound = "Cc1ccc(-c2nc3ccc(C)cn3c2CC(=O)N(C)C)cc1"
parameter_measured = "inhibition"
unit_of_measurement = "%"
measurement = -1.98

[[record]]
compound = "CN1C(=O)CN=C(c2ccccc2)c2cc(Cl)ccc21"
parameter_measured = "inhibition"
unit_of_measurement = "%"
measurement = -1.98

[[record]]
compound = "Cc1nnc2n1-c1ccc(Cl)cc1C(c1ccccc1)=NC2"
parameter_measured = "inhibition"
unit_of_measurement = "%"
measurement = -4.36

[[record]]
compound = "CN1CCN(C(=O)O[C@H]2c3nccnc3C(=O)N2c2ccc(Cl)cn2)CC1"
parameter_measured = "inhibition"
unit_of_measurement = "%"
measurement = -4.09

[[record]]
compound = "CCN(CC)CCOC(=O)C(O)(c1ccccc1)c1ccccc1"
parameter_measured = "inhibition"
unit_of_measurement = "%"
measurement = -1.19

